Provenance of the data: PubChem BioAssay (NCI)

tested on: 786-0 renal; test: NCI-60 one-dose screen, 48 h; conditions: 10 µM unless noted
Compounds without any hit were thinned out: in the full panel of roughly 83,000, 20% have a hit. Calls of active or inactive are those of the source. How the source made its calls: active means growth percent below 10; inactive means the rest.
Tick one outcome: Yes for active, No for inactive

Prompt: Call for entry C[C@@H](Nc1cc(F)cc(F)c1)c1cc(C(=O)N(C)C)cc2c(=O)cc(N3CCOCC3)oc12 :
Response: No

Prompt: Write down the call the test reported for this molecule. Item: O=C(Cn1ccc2ccccc21)Nc1ccc(-c2nc3ccccc3s2)cc1
Response: No

Prompt: I would be grateful if you could indicate the recorded call for CCN1/C(=C/C=C/c2n(-c3ccccc3)c3ccc(-c4nc5ccccc5s4)cc3[n+]2CC)N(c2ccccc2)c2ccc(-c3nc4ccccc4s3)cc21 .
Response: Yes

Prompt: # lookup: test call for Cc1[nH]c(/C=C2\C(=O)Nc3ccc(F)cc32)c(C)c1C(=O)NC[C@H](O)CN1CCOCC1
Response: No

Prompt: Which outcome was entered for the molecule Nc1ncnc2c1c(-c1cccc(OCc3ccccc3)c1)cn2C1CC(CN2CCC2)C1 (stereo not drawn) in this test?
Response: Yes

Prompt: Per the records of this test, what outcome belongs to Cc1nc2cc(-c3nn(C(C)C)c4ncnc(N)c34)ccc2o1 ?
Response: Yes

Prompt: Entry Cc1ccc(NC(=O)c2ccc(CN3CC[C@H](N(C)C)C3)c(C(F)(F)F)c2)cc1Nc1nccc(-c2cncnc2)n1 : call = ?
Response: Yes

Prompt: Look up the recorded call for COc1cc2ncnc3c2cc1OCCCCCN(C)Cc1ccc(Br)cc1N3 in this test.
Response: No

Prompt: Dear all, I need the recorded test outcome for C=CC(=O)N1CCC[C@@H](n2nc(-c3ccc(Oc4ccccc4)cc3)c3c(N)ncnc32)C1 , thank you.
Response: No

Prompt: What is the recorded call for this molecule in the test? C=C1CC[C@@H]2[C@](C)(COC(C)=O)[C@H](OC(C)=O)CC[C@@]2(C)[C@@H]1C/C=C1/C(=O)OC[C@H]1OC(C)=O
Response: Yes

Prompt: Give the logged outcome of this assay for the following molecule: COc1ccc2c(OCc3nnc4ccc(-c5ccccc5)nn34)ccnc2c1
Response: No

Prompt: Status in this test for N#Cc1c(-c2ccc(Cl)cc2)csc1NC(=O)Nc1cccc(C(F)(F)F)c1 ?
Response: No

Prompt: # fetch the recorded call for Cn1c(Nc2ccc(C(F)(F)F)cc2)nc2cc(Oc3ccnc(-c4ncc(C(F)(F)F)[nH]4)c3)ccc21 here
Response: No

Prompt: Call for entry COc1ccc(-c2ccc3ncc4c(c3c2)n(-c2ccc(N3CCNCC3)c(C(F)(F)F)c2)c(=O)n4C)cn1 :
Response: Yes

Prompt: State the result this test recorded for O=C(Nc1nc2cccc(-c3ccc(CN4CCS(=O)(=O)CC4)cc3)n2n1)C1CC1 .
Response: No

Prompt: Each molecule tested received a call. Report the one for CC1(C)NC(=O)c2[nH]c3c(Cl)c(Cl)ccc3c2C1C#N (stereo not drawn) .
Response: No

Prompt: Hey, what did the test say about Cc1cccc(NC(=O)[C@@H]2c3ccccc3C(=O)N(c3ccc(Cl)cc3)[C@H]2c2ccc(Cl)cc2)n1 ?
Response: No

Prompt: Could you please tell me the result logged for Cc1ccc(C(=O)Nc2ccc(CN3CCN(C)CC3)c(C(F)(F)F)c2)cc1C#Cc1cnc2cccnn12 in this assay?
Response: Yes
